Listed here: items and their measured Activity.
# test system: Autotaxin (Homo sapiens)
# experimental details: Inhibition of autotaxin assessed as residual enzyme activity at 1 uM relative to control
Output spec: scalar in %, unitless text.

1. CCCCCCCCCCCCCCCC(=O)N[C@@H](Cc1c[nH]c2ccccc12)C(=O)CP(=O)(O)O :: 91
2. CCCCCCCCCCCCCCCC(=O)N1CCCC1C(O)CP(=O)(O)O (stereo not given) :: 83
3. CCCCCCCCCCCCCCCC(=O)NCC(=O)CP(=O)(O)O :: 79
4. CCCCCCCCCCCCCCCC(=O)N[C@@H](Cc1ccccc1)C(O)CP(=O)(O)O (stereo in doubt; 37) :: 92
5. CCCCCCCCCCCCCCCC(=O)N[C@@H](C(C)C)C(O)CP(=O)(O)O (stereo in doubt; 32) :: 72

Fill in the blank: the reported Activity of CCCCCCCCCCCCCCCC(=O)N[C@@H](Cc1c[nH]c2ccccc12)C(O)CP(=O)(O)O (single isomer, unassigned; diastereomer a) is ____. 88

Fill in the blank: the reported Activity of CCCCCCCCCCCCCCCC(=O)N[C@H](C(=O)CP(=O)(O)O)C(C)C is ____. 109

Fill in the blank: the reported Activity of CCCCCCCCCCCCCCCC(=O)N[C@@H](Cc1ccc(OCc2ncc(C)c(OC)c2C)cc1)CC(F)P(=O)(O)O (mixture of isomers) is ____. 74

Fill in the blank: the reported Activity of CCCCCCCCCCCCCCCC(=O)N[C@@H](Cc1ccc(OCc2ncc(C)c(OC)c2C)cc1)C(F)CP(=O)(O)O (stereo not given in full) is ____. 59

Fill in the blank: the reported Activity of CCCCCCCCCCCCCCCC(=O)NCC(O)CP(=O)(O)O (stereo not given) is ____. 88
